- ASSAY_SUMMARY: Human HepG2 cell viability assay in 384 well format
- Assay type: toxicity, cell-based
- Parameters: dose 125 nL, time 70.5 hour; concentration not given beside the values
- CONDITION_DETAILS: HepG2 cells, read-out: Inhibition
// reported cytotoxicity at 70.5 h for each item listed
ENDPOINT: cytotoxicity at 70.5 h

* COc1cccc(NC(=O)CN(C(C)C)C2CC2)c1 | -2.69%
* CCOc1ccc(C#N)cc1NC(=O)N1CCC(N2CCCC2)C1 (centres undefined) | -9.59%
* O=C(NCCCSc1ccc(F)cc1)C1CCc2cn[nH]c2C1 (centres undefined) | -4.46%
* COc1ccc(CN2C[C@@H](CN(C)CCO)[C@@H](CO)C2)cc1Cl | -7.1%
* CC(C)CCN1CCN(C(=O)c2c[nH]nn2)CC1 | 14%
* CCS(=O)(=O)N1CCc2c(cccc2NC(=O)NCCO)C1 | 12.8%
* CN(C)C(=O)CC1CC2(CCN(Cc3cccs3)CC2)c2ccccc21 (centres undefined) | -20%
* Cc1csc(CNC(=O)NCCc2ccc3c(c2)OCCO3)n1 | 20.8%
* O=S(=O)(C1CC1)N1CCOC2(COCCN(c3ncccn3)C2)C1 (centres undefined) | -9.98%
* Cc1nc(CNC(=O)Nc2ccc3c(c2)CCCC(=O)N3)sc1C | -0.115%
* NC(=O)C1(Cc2ccc(-c3ccccc3)cc2)CCNC1 (centres undefined) | 36.2%
* CC(C)CCCC1CN(C(=O)c2cnc[nH]2)CCO1 (centres undefined) | -11.4%
* O=C(c1cccc(O)c1)N1C[C@@H](CN2CCCCC2)[C@@H](CO)C1 | -4.01%
* CCC(=O)N1CCc2[nH]cnc2C12CCN(C(=O)c1snnc1C)CC2 | -10.6%
* c1ccc(COCC2CNCc3nccn3C2)nc1 (centres undefined) | 0.439%
* CC(C)c1ccc(C#N)c(N2CC(C)(C)[C@@](C)(O)C2)n1 | -17.8%
* CO[C@@H]1CCC[C@@H](N(C)C(=O)c2cc(F)ccc2F)[C@H]1O | -3.32%
* Cc1cc(C(=O)N2CCn3cnc(COCC4CC4)c3C2)no1 | 0.0472%
* O=C(CC1CC1)N1CC[C@H]2[C@@H]1CCC(=O)N2Cc1ccncc1 | -9.8%
* c1cnc2c(-c3nccn3C[C@@H]3CCCN4CCCC[C@H]34)cccc2c1 | 2.23%
* Cc1nc(C2CCCN2CC(=O)NCCOc2ccccc2)no1 (centres undefined) | 0.566%
* Cc1nc(C2CCCN(C(=O)COCc3ccccc3Cl)C2)no1 (centres undefined) | -7.76%
* CC(=O)N(C)c1nc(Cn2nnnc2C(C)C)cs1 | -6.77%
* CC(C)CN1CCc2[nH]cnc2C12CCN(C(=O)c1ccc[nH]1)CC2 | -3.93%

The origin of these recorded values is ChEMBL document CHEMBL3507680.
